# maps each entry to its inhibition at 10 µM
Test system: H2030
Assay: Non Small Cell Lung Cancer proliferation assay (Alamar Blue reduction), H2030
Format: cell-based, human
Conditions: Homo sapiens, NCI-H2030; primary screening; 10 μM compound in 1% DMSO (v/v); read-out: percentage inhibition H2030

| structure | inhibition at 10 µM (%) |
| --- | --- |
| CCOC(=O)NCCOc1cnn(-c2ccccc2)c(=O)c1Cl | 4 |
| COc1cnn(-c2ccc(C)cc2)c(=O)c1SCc1ccccc1 | 3 |
| O=c1ccc(O)nn1-c1ccccc1 | 5 |
